target: biotinylated labeled human GPC3 protein (produced in-house) (human, UniProt P51654 25-559, limits assumed, biotinylated (Dojindo, Cat. No. LK03); sites not stated); experiment: ELISA, biotinylated human GPC3 protein
observation.type: OD450 at 66.66 nM (OD450)
Reply with just the number (in OD450).

Tell us which OD450 at 66.66 nM value is on record for hAb003LH2L1 (antibody, human IgG1, V domains shown, Humanized F2.154.1; VH H2 + VL L1; expressed as human IgG1) VH: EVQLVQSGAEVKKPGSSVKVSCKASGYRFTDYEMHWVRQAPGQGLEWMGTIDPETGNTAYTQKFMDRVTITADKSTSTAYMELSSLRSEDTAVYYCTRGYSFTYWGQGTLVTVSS VL: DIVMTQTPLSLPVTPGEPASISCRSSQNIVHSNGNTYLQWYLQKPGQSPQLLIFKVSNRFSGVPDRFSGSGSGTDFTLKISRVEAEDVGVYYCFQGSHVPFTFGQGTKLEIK
2.54

Tell us which OD450 at 66.66 nM value is on record for hAb007LH3L1 (antibody, human IgG1, V domains shown, Humanized F3.81.19; VH H3 + VL L1; expressed as human IgG1) VH: EVQLVQSGAEVKKPGSSVKVSCKASGYTFTDYEMHWVRQAPGQGLEWMGTIDPETGNTAYNQKFKGRVTLTADKSTSTAYMELSSLRSEDTAVYYCTRPYSLTYWGQGTLVTVSS VL: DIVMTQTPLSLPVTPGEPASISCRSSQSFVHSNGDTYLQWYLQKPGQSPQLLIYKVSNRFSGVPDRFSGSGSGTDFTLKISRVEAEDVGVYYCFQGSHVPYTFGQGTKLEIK
2.19
